Listing of entries alongside the reported CC50 at 72 h.
- assay-method-text: in vitro
- measurement-parameters: dog
Only the number, expressed in µM, is required.

CC(=O)Nc1cccc(-c2nc(C(=O)O)c(O)c(=O)[nH]2)c1	48.7

Now look at this one.
Query COC(=O)c1nc(-c2cn(C)cn2)[nH]c(=O)c1O yields CC50 at 72 h of 53.2

----------
- tested-target: PAN endonuclease (Influenza A virus)
- Assay type: biochemical, H5N1 influenza virus A/Vietnam/1203/2004
reported-property: Inhibition of PAN endonuclease activity

Cn1cnc(-c2nc(C(=O)O)c(O)c(=O)[nH]2)c1 [Compound 4]	inhibit PAN activity
CC(=O)Nc1cccc(-c2nc(C(=O)O)c(O)c(=O)[nH]2)c1 [Compound 5]	inhibit PAN activity
